Protein target, amino acids: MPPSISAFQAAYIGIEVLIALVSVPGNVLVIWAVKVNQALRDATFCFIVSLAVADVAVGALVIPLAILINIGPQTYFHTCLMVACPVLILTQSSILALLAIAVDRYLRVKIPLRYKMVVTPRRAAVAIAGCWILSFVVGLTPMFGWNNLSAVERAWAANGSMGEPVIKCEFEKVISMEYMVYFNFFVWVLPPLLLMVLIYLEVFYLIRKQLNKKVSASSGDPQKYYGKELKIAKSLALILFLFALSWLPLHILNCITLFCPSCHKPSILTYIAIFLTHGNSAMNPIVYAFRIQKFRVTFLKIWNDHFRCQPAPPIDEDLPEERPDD
pKi: −log10 of the molar value.
measurement.name: pKi

# molecule, pKi
measured = [
    ("Cc1cc(-c2sc(NC(=O)N3CCC4(CC3)CNC4=O)nc2-c2cccc(C#N)c2)c(F)c(C)n1 [US20230293517, Example 6.69]", 6.91),
]

a: Cc1cc(-c2sc(NC(=O)N3CCC(C)(C#N)CC3)nc2-c2cccc(C#N)c2)c(F)c(C)n1 [US20230293517, Example 6.66]
b: Cc1cc(-c2sc(NC(=O)N3CC(C)(O)C3)nc2-c2cccc(C#N)c2)c(F)c(C)n1 [US20230293517, Example 6.67]
Sorting by pKi in descending order, would a or b appear first? Lab note: record the label of whichever item you select.
b

1: Cc1cc(-c2sc(NC(=O)N3CC[C@@H]3C)nc2-c2cccc(C#N)c2)cc(C)n1 [US20230293517, Example 6.72]
2: Cc1cc(-c2sc(NC(=O)N3CC(C)(C#N)C3)nc2-c2cccc(C#N)c2)c(F)c(C)n1 [US20230293517, Example 6.68]
Sorting by pKi in descending order, would 1 or 2 appear first? Lab note: record the label of whichever item you select.
1
